Each recorded value in this set is attributed to PubChem BioAssay (NCI).

- Procedure Text: NCI Yeast Anticancer Drug Screen. Data for the cln2 rad14 strain (AID 165);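 note: 0% = growth equal to vehicle treated cultures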
- Condition Summary: S. cerevisiae cln2 rad14 strain, at 50.0 µM, hits give high values
The panel holds about 79,000 compounds, 15% with a hit somewhere; the sample as a whole holds those more often.
Reported Endpoint: growth inhibition (%)
Give bare numbers, in %.

Solved entries:
Compound	growth inhibition / %
O=C1CC2COc3ccc(OCCN4CCCC4)cc3C2=NN1c1ccccc1 (configuration not stated)	-18.9
CCCNCC(O)CNc1ccc(Cl)cc1 (configuration not stated)	-9.4
CCCCOC(=O)CCc1nc2c([nH]1)c(=O)n(C)c(=O)n2C	42.4
Nc1ncnc2c1[nH]c(=O)n2-c1ccccc1	-1.3
Cc1ccccc1OCC1COCN(C(C)(C)CO)CO1 (configuration not stated)	7.9
COC(=O)CNC(=O)C1CSC(C)(C)N1 (configuration not stated)	-12.2

Could you now look at the following compound, please?
-- ask Supply growth inhibition value. Item: `CC(C)CC(=O)CCc1ccccc1`
-- reply -6.35

* * *

Give measured growth inhibition for each item. Keep answers brief.
- Procedure Text: NCI Yeast Anticancer Drug Screen. Data for the mec2-1 strain (AID 157)
- Condition Summary: S. cerevisiae mec2-1 strain, at 50.0 µM, hits give high values
- Method: Growth inhibition of yeast strains with defined genetic alterations is measured as a screen for potential anti-cancer activity. Selected strains with alterations in DNA damage repair or cell cycle control were exposed to compounds and growth inhibition was measured relative to vehicle treated controls. The strain used in this assay is mec2-1
Compounds without any hit were thinned out: in the full panel of roughly 79,000, 15% have a hit.
Give bare numbers, in %.

Completed entries (count: 4):
Compound	growth inhibition / %
c1ccc(-c2cc3c(nn2)[nH]c2ccccc23)cc1	-1.95
Cc1c(N2CCCC2)cc2c(c1-n1cccc1)C(C)(C)CC2(C)C	-14.2
Cc1cc(OCCN(C)C)cc(C)c1Cl	-0.75
C[Si](C)(C)/C(=N/Nc1ccc([N+](=O)[O-])cc1[N+](=O)[O-])c1ccccc1	9.9

Dear colleague, could you send me growth inhibition for each of the items below? Thanks.
1. Cc1csc2[nH]c(=O)[nH]c(=O)c12
2. Cc1ccc([N+](=O)[O-])cc1NC(=O)C(=O)Cc1cc(=O)oc2cc(O)ccc12

-- reply
1. 6.05
2. -22.9

# return growth inhibition for each item in the list
1. CCCCCCCCCCCCCCCCc1c(C)ncn(C)c1=O
2. CC(C)CCCOC(=O)c1ccccc1
3. COc1ccc(N)nn1

-- reply
2
-6.5
-6.9

Answer for every listed entry: what is its growth inhibition? The entries follow.
1. O=c1c(Cl)c(N2CCCCC2)cnn1-c1ccccc1
2. CCn1nc(C(=O)O)c(=O)c2cc3c(cc21)OCO3
3. CC(COc1ccccc1)OC(=O)CCl (stereo not given)
4. O=c1[nH]n(Cc2ccccn2)c2ccc([N+](=O)[O-])cc12
5. Cc1ccc2c(ccc3nnc(C)n32)c1
6. CN1CCc2[nH]nc(-c3n[nH]c4c3CN(C)CC4)c2C1
7. OCc1ccc2ccccc2n1

-- reply
[14.2, 7.2, 5.6, -7.8, 4.05, 0.85, -1.2]

Please report growth inhibition for every entry that follows.
1. Cc1c(O)c2cccc(-c3ccccc3)c2oc1=O
2. CC1Cc2ccccc2C2=C3CC=CCC3C3C(=O)OC(=O)C3C21 (stereo not given)
3. N#CC(C#N)=CNC(=S)Nc1ccc(S(=O)(=O)Nc2nccs2)cc1
4. O=C(COc1ccc(Cl)cc1Cl)Nc1ccc2ccccc2c1

-- reply
1. 17.5
2. 8.05
3. -35.8
4. 46

Dear colleague, could you send me growth inhibition for each of the items below? Thanks.
1. Cn1c(=O)c2c(ncn2CC(=O)O)n(C)c1=O
2. CCCCCCCC/C=C\CCCCCCCCCCCC(=O)O
3. COc1ccc(-c2cc(=O)c3cc(C)c(C)c(C(=O)O)c3o2)cc1

-- reply
1: -28.1; 2: 5.75; 3: -2.95

For each entry beneath this line, provide reported growth inhibition.
1. C=CCCCCCCCCC(=O)NCc1cccnc1
2. Nc1nc2nc(N=Nc3ccccc3)[nH]c2c(=O)[nH]1
3. CCOCC1OCCCO1
4. COS(=O)(=O)C=C(c1ccccc1)c1ccccc1

-- reply
1. 9.15
2. -1.9
3. 12.4
4. -27.1

// each listed compound needs a value for growth inhibition
1. NC1=NC(c2ccccc2O)CC(=O)N1 (stereo not given)
2. C=C(S(=O)(=O)CC)S(=O)(=O)CC
3. COc1cc(C(CC#N)CC#N)cc(OC)c1OC
4. CCOCCOCCOCOCCOCCOCC

-- reply
1: -8.25; 2: -7.75; 3: -15.8; 4: -25.2

I have 3 compounds here; please give me growth inhibition for each one.
1. CCOC(=O)C1=C(C)Oc2cc3c(cc2C1c1cc(OC)c(O)c(OC)c1)OCO3 (stereo not given)
2. CC1=CC2C3C(=O)OC(=O)C3C1C(Cc1ccccc1)N2C (stereo not given)
3. Cc1ccc(C(=O)O)c(O)c1

-- reply
1. 1.65
2. -1.85
3. -1.7

* * *

Kindly state growth inhibition for each of the entries shown.
- Procedure Text: NCI Yeast Anticancer Drug Screen. Data for the cln2 rad14 strain (AID 165);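 note: 0% = growth equal to vehicle treated cultures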
- Condition Summary: S. cerevisiae cln2 rad14 strain, at 50.0 µM, hits give high values
This is part of a sample that, as a whole, favours compounds with a hit. Of some 79,000 tested, about 15% had one in any assay.
Numbers only, in %.

Compound	Result Unit	growth inhibition
COc1cc2c(c(OC)c1OC)-c1ccc(OC)c(=O)cc1[C@@H](NC(=O)c1ccccc1)CC2	%	-0.05
CNC(=S)NNC(=O)c1ccncc1	%	18.6
COc1ccc(C2OC(=N)C(=S)N2C)cc1O (stereo unspecified)	%	-22.7
CN(C)c1cccc2c1C(=O)C=CC21c2ccc(N(C)C)c3c(N(C)C)ccc(c23)C(c2ccccc2)C1c1ccccc1 (stereo unspecified)	%	-27.3
CCCCCCOCC(=O)O	%	-19.8

Field: growth inhibition. Fill in for each record below.
1. CCOC(=O)c1ccc(NN=NC(C)(C)C)cc1
2. CC(=O)Oc1ccc(CC(C)C(C)Cc2ccc(OC(C)=O)c(OC(C)=O)c2)cc1OC(C)=O (stereo unspecified)
3. CCCCCCCCCCCCCCCCCCCCCCCCCCCCCCS(=O)(=O)Cl
4. CC(C)(C)OC(=O)Cn1ncn(NC(=O)Cc2ccccc2)c1=S

-- reply
1. -29.2
2. 7.4
3. 18.8
4. -37.2

# batch size: 2; output growth inhibition per entry
1. O=C(CN1CCOCC1)NC(=O)c1ccccc1
2. C=CCS(=O)CC(NC(=O)c1ccccc1)C(=O)O (stereo unspecified)

-- reply
1.5
-15.4

* * *

- Procedure Text: NCI Yeast Anticancer Drug Screen. Data for the rad50 strain (AID 155);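 note: 0% = growth of vehicle-only cultures of the same strain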
- Condition Summary: S. cerevisiae rad50 strain growth inhibition; at 50.0 µM; hits give high values
This is part of a sample that, as a whole, favours compounds with a hit. Of some 79,000 tested, about 15% had one in any assay.
Reported Endpoint: growth inhibition (%)
Numbers only, in %.

Here are 4 compounds together with their reported answers.
Compound	Result Unit	Endpoint Value
Cc1cc2[nH]c3ccccc3n2c(=O)c1N=Nc1ccccc1	%	3.1
COC(=O)C(C(=O)OC)C(c1cccc([N+](=O)[O-])c1)C(N)c1ccccc1 (stereo not drawn)	%	15.3
CCCCCCCCC(CO)CCCCCC (stereo not drawn)	%	15.9
Cc1ccc(Cl)cc1NC(=O)C(C)Oc1ccccc1 (stereo not drawn)	%	4.45

Batch request: growth inhibition for each of the following compounds.
1. Cc1ccc(C(C)C)cc1[N+](=O)[O-]
2. CCOC(=O)/C(=C\c1ccc(N(C)C)cc1)c1nc2ccccc2[nH]1
3. CCOC(=O)C1(C(=O)OCC)CC1c1ccccc1 (stereo not drawn)
4. Cc1nc2ccccc2n1C(=O)c1c(F)c(F)c(F)c(F)c1F
5. CC(O)c1ccc(C(O)/C(=N\NC(=O)c2ccncc2)c2nc3ccc([N+](=O)[O-])cc3[nH]c2=O)cc1 (stereo not drawn)

-- reply
9.9
38
4.6
-35.9
-5.95

For every item below, please supply its growth inhibition.
1. CN(C)C(=S)OCC(C)(C)C
2. CC(=O)NC(C=O)C(O)C(O)C(O)C(=O)O (stereo not drawn) (tested in a mixture with another compound)
3. CN(C)c1ccc(N=Nc2cccc3ncccc23)cc1

-- reply
[-1.45, -25.4, 2.1]

* * *

- Procedure Text: NCI Yeast Anticancer Drug Screen. Data for the sgs1 mgt1 strain (AID 161);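 note: 0% = growth of cultures given vehicle only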
- Condition Summary: S. cerevisiae sgs1 mgt1 strain, at 50.0 µM, hits give high values
Compounds without any hit were thinned out: in the full panel of roughly 79,000, 15% have a hit.
Reported Endpoint: growth inhibition (%)
Answers are plain numbers, in %.

Look over these answered cases.
Molecule	growth inhibition (%)
CC(C)(C)OC(=O)C1/C(=C/CO)CN1C(=O)OC(C)(C)C (stereo not drawn)	-12.2
Cc1ccc(/C=N/NC(N)=O)cc1	12.3
Cc1cccc(Cl)c1NC(=O)COc1ccc(Cl)cc1	38.2
Nc1ccn(CC(=O)c2ccc(Cl)s2)c(=O)n1	6.9
Cc1ccc(/C=N/NC2=NCCN2)s1	4.35
C#CC[N+](C)(CC#C)CC#C	13
CCOC(=O)N/N=C(/OCC)c1ccccc1	-7.2
CCOC(=O)Cn1c(=O)n(C)c(=O)c2c1ncn2Cc1ccccc1	-14.3
N=C1C=CC2C(=Nc3ccccc3[N+]2=O)N1Cc1ccncc1 (stereo not drawn)	-6
Cc1cc(C)c(S(=O)(=O)O)c(Cc2ccccc2)c1	31.5

Kindly give each listed record's growth inhibition.
1. NC1(C(=O)O)CCCC1C(=O)O (stereo not drawn)
2. NC1C2C=CC(C2)C1C(=O)O (stereo not drawn)
3. COC1=CC(=C(C#N)C(=Nc2ccccc2)SC)C=C(OC)C1=O

-- reply
1: -23.1; 2: -50.4; 3: 48.9
